- protocol_description: melting temperature; fluorescence melt of hairpins on a sequencing array, two-state fit, raised by 9.35 °C to match UV melts
- run_parameters: sodium 0.088 M
Entries annotated with measured Tm
Give just the number in °C; leave the unit off.

Please review the following examples before continuing.
[
  {
    "sequence_record": "GCAACGGGAAACCATCGC ((.(.((....)).).))",
    "Tm (°C)": 27
  },
  {
    "sequence_record": "GCGGTAACGAAAGTTCGC (((..(((....))))))",
    "Tm (°C)": 47.4
  }
]

Would you kindly look at the next entry?
What measured Tm goes with GCCTGGCGAAAGCTAAGC ((.(.((....)).).)) ?
36.2

====

- protocol_description: folding enthalpy; higher = less favourable; fluorescence melt of hairpins on a sequencing array, two-state fit
- run_parameters: sodium 0.088 M
outcome_measure: folding enthalpy (kcal/mol)
Give just the number in kcal/mol; leave the unit off.

Please review the following examples before continuing.
[
  {
    "sequence_record": "GATCTGATCCAGATC ((((((...))))))",
    "numeric_readout": -35.2
  },
  {
    "sequence_record": "GATCCGTCTCGGATC ((((((...))))))",
    "numeric_readout": -42.8
  }
]

What measured folding enthalpy goes with GGGGTCGAAAGACATCCC ((((((....)))..))) ?
-17.1

====

- protocol_description: melting temperature; fluorescence melt of hairpins on a sequencing array, two-state fit, raised by 9.35 °C to match UV melts
- run_parameters: sodium 0.088 M
outcome_measure: Tm (°C)
Give just the number in °C; leave the unit off.

Please review the following examples before continuing.
[
  {
    "sequence_record": "GTCGTTGGAAACAACGAC (((((((....)))))))",
    "Tm / °C": 67.6
  },
  {
    "sequence_record": "GCGACGCGAAAGCACCGC (((..((....))..)))",
    "Tm / °C": 55.8
  },
  {
    "sequence_record": "GCCTTCGCGAAAGCGGGC (((..(((....))))))",
    "Tm / °C": 55.1
  },
  {
    "sequence_record": "CAGTGGAAACACTG (((((....)))))",
    "Tm / °C": 51.7
  },
  {
    "sequence_record": "CGAGACCGGAAACGGTCG (((..(((....))))))",
    "Tm / °C": 57.1
  },
  {
    "sequence_record": "GTCTGGGGAAACTCAGAC (((((.(....).)))))",
    "Tm / °C": 49.1
  }
]

What measured Tm goes with GATCGGATGTCCGATC ((((((....)))))) ?
56.8

What measured Tm goes with GCTACTGCGAAAGCAAGC (((..(((....)))))) ?
34.7

What measured Tm goes with GTAATTGGAAACGATTAC (((((.(....).))))) ?
38.1

====

- protocol_description: melting temperature; fluorescence melt of hairpins on a sequencing array, two-state fit, raised by 9.35 °C to match UV melts
- run_parameters: sodium 0.088 M
Response field class: enum, chosen by comparing Tm against low = under 50 °C, mid = from 50 °C up to 60 °C, high = 60 °C and over

Before answering, review these 6 worked examples.
[
  {
    "sequence_record": "GCATGTGGAAACGCATGC (((((.(....).)))))",
    "category_label": "mid"
  },
  {
    "sequence_record": "GCGAATCGTCGC ((((....))))",
    "category_label": "low"
  },
  {
    "sequence_record": "GTTGGCGAAAGCCATAAC ((((((....)))..)))",
    "category_label": "low"
  },
  {
    "sequence_record": "GATCGAGCCCTCGATC ((((((....))))))",
    "category_label": "mid"
  },
  {
    "sequence_record": "GCGTAGCGAAAGCCAAGC ((.(.((....)).).))",
    "category_label": "low"
  },
  {
    "sequence_record": "GGTCACGAAAGTGTCACC ((((((....)))..)))",
    "category_label": "low"
  }
]

GET /class?item= GATCATTAAGATGATC ((((((....))))))
low

GET /class?item= TGCGTGAAAACGCA (((((....)))))
high

GET /class?item= GATCTACTATAGATC ((((((...))))))
low

GET /class?item= GACACACGAAAGTGGGTC (((.(((....))).)))
high

GET /class?item= GAACCGGGAAACCGGCTC ((.((((....)))).))
low

GET /class?item= GGAACCGGAAACGATTCC ((((.((....)).))))
low

GET /class?item= GCGTAGCGAAAGCAAAGC ((.(.((....)).).))
mid

====

- protocol_description: melting temperature; fluorescence melt of hairpins on a sequencing array, two-state fit, raised by 9.35 °C to match UV melts
- run_parameters: sodium 0.088 M
Entries annotated with measured Tm
Entry format: amount then unit.

Please review the following examples before continuing.
[
  {
    "sequence_record": "GTTAGCGAAAGCTTAAC ((((((....))).)))",
    "Tm": "42.8 °C"
  },
  {
    "sequence_record": "GATCCCGCCGGGATC ((((((...))))))",
    "Tm": "67.6 °C"
  },
  {
    "sequence_record": "GTTCGCCCGAAAGGGAAC (((..(((....))))))",
    "Tm": "35.9 °C"
  }
]

What measured Tm goes with GTTCCAGGAAACTGAAAC (((.(((....))).))) ?
30.4 °C

What measured Tm goes with GCGACACATCGC ((((....)))) ?
50.3 °C

What measured Tm goes with GCCATAGGAAACTATGAC (.(((((....))))).) ?
34.1 °C

====

Entries annotated with measured folding enthalpy
- protocol_description: folding enthalpy; higher = less favourable; fluorescence melt of hairpins on a sequencing array, two-state fit
- run_parameters: sodium 0.088 M
Give just the number in kcal/mol; leave the unit off.

Please review the following examples before continuing.
[
  {
    "sequence_record": "GAAGCTGGAAACAGCTTC (((((((....)))))))",
    "numeric_readout": -40.9
  },
  {
    "sequence_record": "GATCGGACATCCGATC ((((((....))))))",
    "numeric_readout": -38.7
  }
]

Would you kindly look at the next entry?
What measured folding enthalpy goes with GCGCCCGAAAGGGAACGC ((((((....)))..))) ?
-33.4

====

- protocol_description: melting temperature; fluorescence melt of hairpins on a sequencing array, two-state fit, raised by 9.35 °C to match UV melts
- run_parameters: sodium 0.088 M
Binary label based on Tm with cut-off 50 °C: below gives class 1, not below gives class 0.

[
  {
    "sequence_record": "GTCCTAACGAAAGTTGAC (((..(((....))))))",
    "category_label": "class 1"
  },
  {
    "sequence_record": "GGGTTCGGAAACGGACCC ((((.((....)).))))",
    "category_label": "class 0"
  }
]

Determine whether this sequence shows Tm lower than 50 °C (ties excluded): GGGTTCGAAAGAAGTCCC ((((((....)))..)))
class 1

Determine whether this sequence shows Tm lower than 50 °C (ties excluded): GCTAGTGCGAAAGCAAGC (((..(((....))))))
class 1

Determine whether this sequence shows Tm lower than 50 °C (ties excluded): GATAGGGGAAACTCTATC (((((.(....).)))))
class 1

====

- protocol_description: folding enthalpy; higher = less favourable; fluorescence melt of hairpins on a sequencing array, two-state fit
- run_parameters: sodium 0.088 M
outcome_measure: folding enthalpy (kcal/mol)
Give just the number in kcal/mol; leave the unit off.

[
  {
    "sequence_record": "GTTCCCGAAAGGGATAAC ((((((....)))..)))",
    "units_label": "kcal/mol",
    "folding enthalpy": -10.2
  }
]

What measured folding enthalpy goes with GTGGGGGGAAACCCTCGC (.(.(((....))).).) ?
-17.2

What measured folding enthalpy goes with GGTGTCTCGAAAGAGACC (((..(((....)))))) ?
-12.3

What measured folding enthalpy goes with GCGGACTACCGC ((((....)))) ?
-27.9

What measured folding enthalpy goes with GATCCCGCCGGGATC ((((((...)))))) ?
-39.7

What measured folding enthalpy goes with GCTAGTCGAAAGACCAGC (((.(((....))).))) ?
-26.6

====

Entries annotated with measured folding enthalpy
- protocol_description: folding enthalpy; higher = less favourable; fluorescence melt of hairpins on a sequencing array, two-state fit
- run_parameters: sodium 0.088 M
Give just the number in kcal/mol; leave the unit off.

What measured folding enthalpy goes with GCACACGGAAACGCGTGC ((((.((....)).)))) ?
-47.3

What measured folding enthalpy goes with GTGGGTGGAAACGTCCAC ((((..(....)..)))) ?
-18.8

What measured folding enthalpy goes with GATCCATCGGTGGATC ((((((....)))))) ?
-39.5

What measured folding enthalpy goes with GATGGGGCGAAAGCCATC (((..(((....)))))) ?
-12

What measured folding enthalpy goes with GGGCCTCGAAAGAGACCC (((.(((....))).))) ?
-43

What measured folding enthalpy goes with GATAATGAAAATTATC ((((((....)))))) ?
-20.5

What measured folding enthalpy goes with GCGGTCGGAAACGATCGC (((.(((....))).))) ?
-34.8

What measured folding enthalpy goes with GCTAGCCGAAAGGCAAGC (((.(((....))).))) ?
-27

What measured folding enthalpy goes with GCCACGCGAAAGCGCAGC ((..(((....)))..)) ?
-10.6
